Data provenance is patent US10945992B1.

# experiment_summary: TRM-201-PK-102 single-dose four-period crossover pharmacokinetic study, fasted healthy subjects
# Format: in vivo, human
# condition_summary: human, plasma, oral, 25 mg, 102 study, non-Hispanic or non-Latino subjects, read-out: arithmetic mean AUC0-∞
experimental_endpoint: AUC(0-inf) (ng·h/mL)
Numeric only. Scale: ng·h/mL

Prompt line: Name the recorded AUC(0-inf) of the molecule listed here: CS(=O)(=O)c1ccc(C2=C(c3ccccc3)C(=O)OC2)cc1
Response line: 4280

====

# experiment_summary: TRM-201-PK-102 single-dose four-period crossover pharmacokinetic study, fasted healthy subjects
# Type: in vivo, human
# condition_summary: human, plasma, oral, 25 mg, 102 study, body weight 70.1-77 kg, read-out: arithmetic mean AUC0-∞
experimental_endpoint: AUC(0-inf) (µg·h/mL)
Express it in µg·h/mL; write the number only.

Prompt line: State its AUC(0-inf) for this molecule: CS(=O)(=O)c1ccc(C2=C(c3ccccc3)C(=O)OC2)cc1
Response line: 5.47
